The values you see were collected from paper PMC4870556.

- Measured on: ScErg11p6 × His Y140F (Saccharomyces cerevisiae, UniProt P10614, Y140F)
- Construct: full-length Saccharomyces cerevisiae hexahistidine-tagged Erg11p (ScErg11p6 × His); made in house; host or cells: Saccharomyces cerevisiae strain AD3ΔScErg11_Y140F (native ERG11 deleted)
- Sequence (P10614 whole entry Y140F): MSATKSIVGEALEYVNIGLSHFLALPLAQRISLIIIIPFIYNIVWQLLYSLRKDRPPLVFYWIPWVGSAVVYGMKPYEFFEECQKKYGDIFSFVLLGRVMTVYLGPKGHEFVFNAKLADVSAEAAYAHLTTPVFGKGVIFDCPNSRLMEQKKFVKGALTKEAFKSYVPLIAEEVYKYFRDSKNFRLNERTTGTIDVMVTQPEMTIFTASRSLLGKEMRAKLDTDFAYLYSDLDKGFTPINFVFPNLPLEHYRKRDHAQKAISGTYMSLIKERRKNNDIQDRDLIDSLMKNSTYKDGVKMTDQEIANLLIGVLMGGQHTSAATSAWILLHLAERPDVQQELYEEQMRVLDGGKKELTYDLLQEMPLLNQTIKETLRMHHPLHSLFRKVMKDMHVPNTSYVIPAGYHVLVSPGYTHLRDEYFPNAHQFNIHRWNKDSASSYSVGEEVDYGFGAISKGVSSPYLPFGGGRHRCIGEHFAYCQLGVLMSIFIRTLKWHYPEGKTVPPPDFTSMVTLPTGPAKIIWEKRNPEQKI
- Assay summary: Type II difference spectra triazole binding to affinity purified Y140F mutant enzyme
- Conditions: Y140F enzyme, Ni-NTA affinity purified
# Lookup of reported ΔAmax of type II difference spectra keyed by entry
Simply state the number, no unit and no words.

May I ask what ΔAmax of type II difference spectra has been recorded for OC(Cn1cncn1)(Cn1cncn1)c1ccc(F)cc1F [FLC, fluconazole] ?
0.023

May I ask what ΔAmax of type II difference spectra has been recorded for C[C@@H](c1ncncc1F)[C@](O)(Cn1cncn1)c1ccc(F)cc1F [VCZ, voriconazole] ?
0.019

May I ask what ΔAmax of type II difference spectra has been recorded for CCC(C)n1ncn(-c2ccc(N3CCN(c4ccc(OCC5COC(Cn6cncn6)(c6ccc(Cl)cc6Cl)O5)cc4)CC3)cc2)c1=O (stereo not shown) [ITC, itraconazole] ?
0.014

May I ask what ΔAmax of type II difference spectra has been recorded for CC[C@@H]([C@H](C)O)n1ncn(-c2ccc(N3CCN(c4ccc(OC[C@@H]5CO[C@@](Cn6cncn6)(c6ccc(F)cc6F)C5)cc4)CC3)cc2)c1=O [PCZ, posaconazole] ?
0.016
